Tested on: HEK-Blue TGFβ cell
Assay: HEK-Blue TGFβ cellular reporter gene assay (SEAP readout)
Format: cell-based
Conditions: HEK-Blue TGFβ cells stimulated with TGF-β, 22-23 h incubation, SEAP read at 630 nm
Protocol: HEK-Blue TGFβ Cellular Reporter Gene Assay: HEK-Blue TGFβ cell was purchased from Invivogen. Cell suspension of 2.5×10^5 cells/ml was prepared using Test Medium (DMEM containing 0.5% v/v heat-inactivated FBS). TGF-β working solution (6 ng/ml) was obtained through diluting TGF-β stock solution (10 μg/ml) by Test Medium before use. […] The inhibition was calculated using the equation: […]
pIC50: −log10 of the molar value.
Label false (0) if pIC50 falls below 7; label true (1) in every other case.

INSERT INTO results (smiles_code, answer_label) VALUES
  ('Cc1cc(Oc2ccnc(Nc3ccn(CCc4nn[nH]n4)n3)c2)c(-c2ccccn2)nc1C', 'false (0)'),
  ('Cc1cc(Oc2ccnc(Nc3cc(CCc4nnn[nH]4)ccn3)c2)c(-c2ccccn2)nc1C', 'false (0)'),
  ('Cc1ccc(Oc2ccnc(Nc3cccc(CCc4nn[nH]n4)c3)c2)c(-c2cccnc2)n1', 'false (0)'),
  ('Cc1ccc(Oc2ccnc(Nc3cccc(C(F)(F)C(=O)O)c3)c2)c(-c2ccccc2)n1', 'false (0)'),
  ('CCc1nc(C)c(Oc2ccnc(Nc3cc(C)cc(CCC(=O)O)c3)c2)cc1C', 'true (1)'),
  ('Cc1ccc(Oc2ccnc(Nc3cc(CCc4nn[nH]n4)ccn3)c2)c(C)n1', 'false (0)'),
  ('O=C(O)C(F)(F)c1cccc(Nc2cc(Oc3cn(C4CC4)nc3-c3ccccc3)ccn2)c1', 'false (0)'),
  ('CC(C)(C(=O)O)c1cccc(Nc2cc(Oc3cn(C4CC4)nc3C3CCCC3)ccn2)c1', 'true (1)'),
  ('Cc1cc(Oc2ccnc(Nc3ccc(F)c(CCC(=O)O)c3)c2)c(-c2ccccn2)nc1C', 'false (0)'),
  ('CC(C)(C(=O)O)c1cccc(Nc2cc(Oc3cn(C4COC4)nc3-c3ccccc3)ccn2)c1', 'false (0)'),
  ('CC(C)(C(=O)O)c1cccc(Nc2cc(Oc3cn(C4CC4)nc3C3CCC3)ccn2)c1', 'true (1)'),
  ('Cc1cc(CCc2nnn[nH]2)cc(Nc2cc(Oc3cc(C)c(C)nc3-c3ccccn3)ccn2)c1', 'true (1)'),
  ('CCc1nc(C)c(Oc2ccnc(Nc3cc(C)cc(C(C)(C)C(=O)O)c3)c2)cc1C', 'true (1)'),
  ('Cc1cc(Oc2ccnc(Nc3cccc(CCC(=O)O)n3)c2)c(-c2ccccn2)nc1C', 'false (0)'),
  ('Cc1cc(Oc2ccnc(Nc3cccc(C(C)(C)CC(=O)O)c3)c2)c(-c2ccccn2)nc1C', 'true (1)'),
  ('Cc1ccc(Oc2ccnc(Nc3cccc(C(C)(C)C(=O)O)c3)c2)c(C2CCOCC2)n1', 'false (0)'),
  ('Cc1cc(Oc2ccnc(Nc3cccc(CCc4nnn[nH]4)c3C)c2)c(-c2ccccn2)nc1C', 'false (0)'),
  ('CC(C)(Cc1cccc(Nc2cc(Oc3cn(C4CC4)nc3-c3ccccc3)ccn2)c1)C(=O)O', 'false (0)'),
  ('Cc1cc(Nc2cc(Oc3cn(C(C)C)nc3C3CCOCC3)ccn2)cc(C(C)(C)C(=O)O)c1', 'false (0)'),
  ('Cc1cc(Oc2ccnc(Nc3ccnc(CCC(=O)O)c3)c2)c(-c2ccccn2)nc1C', 'false (0)'),
  ('Cc1ccc(Oc2ccnc(Nc3cccc(C(C)(C)C(=O)O)c3)c2)c(-c2cccc(C#N)c2)n1', 'false (0)'),
  ('CCc1ccc(Oc2ccnc(Nc3cccc(C(C)(C)C(=O)O)c3)c2)c(C)n1', 'true (1)'),
  ('CCc1ccc(Oc2ccnc(Nc3cccc(C(C)(C)C(=O)O)c3)c2)c(-c2ccccc2)n1', 'true (1)');

Data credit: patent US20220054465A1
